Target: T1, cynomolgus FGFR3b expressed with a C-terminal myc-myc-hexahistidine tag (mfFGFR3b.mmH) (cynomolgus)
T1 construct: The name states R357G; also called REGN3521; mf FGFR3b ecto (R357G) (E23-G377;R357G).mmH
T1 chain: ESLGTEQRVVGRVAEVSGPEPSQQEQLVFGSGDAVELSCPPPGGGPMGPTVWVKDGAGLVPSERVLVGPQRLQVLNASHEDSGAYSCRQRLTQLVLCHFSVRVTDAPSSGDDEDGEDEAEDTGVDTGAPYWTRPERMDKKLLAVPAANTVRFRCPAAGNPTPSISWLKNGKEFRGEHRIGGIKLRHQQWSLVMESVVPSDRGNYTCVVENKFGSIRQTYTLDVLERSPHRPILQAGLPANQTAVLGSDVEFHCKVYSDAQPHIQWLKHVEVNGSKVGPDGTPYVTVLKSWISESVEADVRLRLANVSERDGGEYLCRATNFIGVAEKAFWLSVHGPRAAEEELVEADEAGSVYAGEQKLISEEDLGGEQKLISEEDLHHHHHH
Test: SPR (Biacore), captured mAb, 25 C
readout.name: t½

* H4H30061P (antibody, human IgG4 S228P, kappa, V domains shown) VH: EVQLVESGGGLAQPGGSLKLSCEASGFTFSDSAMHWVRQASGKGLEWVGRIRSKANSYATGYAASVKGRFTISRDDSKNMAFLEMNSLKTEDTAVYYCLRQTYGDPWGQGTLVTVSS VL: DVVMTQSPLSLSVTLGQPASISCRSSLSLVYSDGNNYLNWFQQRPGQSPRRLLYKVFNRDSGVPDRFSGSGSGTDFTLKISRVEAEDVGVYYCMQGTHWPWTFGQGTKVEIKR | 1.96 h
* H4H30063P (antibody, human IgG4 S228P, kappa, V domains shown, Tested as whole antibody; also called anti-FGFR3b antibody H4H30063P) VH: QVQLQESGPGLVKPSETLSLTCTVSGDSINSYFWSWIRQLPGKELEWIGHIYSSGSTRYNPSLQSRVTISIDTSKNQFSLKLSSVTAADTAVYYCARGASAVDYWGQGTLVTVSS VL: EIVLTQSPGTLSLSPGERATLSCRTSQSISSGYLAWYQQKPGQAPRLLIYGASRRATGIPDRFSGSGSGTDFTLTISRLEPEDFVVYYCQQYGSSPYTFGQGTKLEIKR | 4.58 h
